Molecular target: Androgen receptor/Baculoviral IAP repeat-containing protein 2 (Homo sapiens, UniProt P10275+Q13490)
Sequence (P10275 whole entry, looked up): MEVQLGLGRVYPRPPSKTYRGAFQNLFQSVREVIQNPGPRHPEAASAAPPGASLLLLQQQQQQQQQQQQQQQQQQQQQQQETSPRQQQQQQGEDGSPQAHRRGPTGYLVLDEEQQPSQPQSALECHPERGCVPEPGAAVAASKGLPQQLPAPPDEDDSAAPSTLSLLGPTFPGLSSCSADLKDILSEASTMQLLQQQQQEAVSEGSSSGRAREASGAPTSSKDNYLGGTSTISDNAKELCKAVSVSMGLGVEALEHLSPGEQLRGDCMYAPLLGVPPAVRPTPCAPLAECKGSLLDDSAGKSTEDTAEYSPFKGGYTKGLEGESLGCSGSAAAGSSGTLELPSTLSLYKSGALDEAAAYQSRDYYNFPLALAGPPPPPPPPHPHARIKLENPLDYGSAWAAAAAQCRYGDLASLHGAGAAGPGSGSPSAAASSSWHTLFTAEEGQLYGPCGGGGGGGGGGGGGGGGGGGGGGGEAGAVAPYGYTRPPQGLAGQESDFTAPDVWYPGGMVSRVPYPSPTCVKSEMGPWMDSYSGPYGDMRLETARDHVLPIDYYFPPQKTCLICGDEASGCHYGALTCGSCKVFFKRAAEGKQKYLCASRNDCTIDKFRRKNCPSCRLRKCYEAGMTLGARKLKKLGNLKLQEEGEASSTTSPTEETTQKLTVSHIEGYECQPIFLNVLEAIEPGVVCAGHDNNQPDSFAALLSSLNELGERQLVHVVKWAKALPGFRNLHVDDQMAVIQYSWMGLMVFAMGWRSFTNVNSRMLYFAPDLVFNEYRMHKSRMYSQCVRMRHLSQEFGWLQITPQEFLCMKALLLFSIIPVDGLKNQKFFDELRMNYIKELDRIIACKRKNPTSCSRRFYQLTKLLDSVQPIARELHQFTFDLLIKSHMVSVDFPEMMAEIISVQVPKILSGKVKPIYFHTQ
Sequence (Q13490 whole entry, looked up): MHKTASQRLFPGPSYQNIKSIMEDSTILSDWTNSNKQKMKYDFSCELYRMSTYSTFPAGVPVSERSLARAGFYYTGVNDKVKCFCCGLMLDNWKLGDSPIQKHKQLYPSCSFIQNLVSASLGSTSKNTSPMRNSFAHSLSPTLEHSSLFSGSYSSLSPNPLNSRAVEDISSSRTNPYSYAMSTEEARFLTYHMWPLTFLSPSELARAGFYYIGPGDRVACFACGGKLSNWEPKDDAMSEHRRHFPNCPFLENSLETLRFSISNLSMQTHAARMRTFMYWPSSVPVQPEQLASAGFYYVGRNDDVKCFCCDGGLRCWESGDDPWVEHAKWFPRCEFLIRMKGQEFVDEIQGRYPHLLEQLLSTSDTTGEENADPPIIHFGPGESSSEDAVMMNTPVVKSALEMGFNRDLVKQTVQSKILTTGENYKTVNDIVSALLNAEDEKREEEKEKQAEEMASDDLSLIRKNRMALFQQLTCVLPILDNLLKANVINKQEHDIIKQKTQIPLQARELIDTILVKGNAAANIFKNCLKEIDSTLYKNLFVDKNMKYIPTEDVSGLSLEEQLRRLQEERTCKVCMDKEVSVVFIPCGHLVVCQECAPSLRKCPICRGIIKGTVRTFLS
Experiment: Induction of AR/cIAP1 interaction in human 22Rv1 cells assessed as ubiquitin proteasome system mediated androgen receptor protein degradation at 1 to 3 uM after 6 hrs by Western blot analysis
Type: cell-based
Active and inactive are the calls of the source. The calls are words filed in the database; no cut-off is given here.
Outcomes: Y (active), N (inactive)

chem_smiles=CN[C@@H](C)C(=O)N[C@H](C(=O)N1CCC[C@H]1c1nc(C(=O)c2cccc(OCCOc3cccc(OCCOc4ccc(Cn5c(C)c(C#N)c(-c6ccc(C#N)cc6)c5C)cc4)c3)c2)cs1)C1CCCCC1 label=N
chem_smiles=CN[C@@H](C)C(=O)N[C@H](C(=O)N1CCC[C@H]1c1nc(C(=O)c2cccc(OCCOc3ccc(OCCOc4ccc(Cn5c(C)c(C#N)c(-c6ccc(C#N)cc6)c5C)cc4)cc3)c2)cs1)C1CCCCC1 label=N
chem_smiles=CN[C@@H](C)C(=O)N[C@H](C(=O)N1CCC[C@H]1c1nc(C(=O)c2cccc(OCCOCCOCCOCCOc3ccc(Cn4c(C)c(C#N)c(-c5ccc(C#N)cc5)c4C)cc3)c2)cs1)C1CCCCC1 label=Y
chem_smiles=CN[C@@H](C)C(=O)N[C@H](C(=O)N1CCC[C@H]1c1nc(C(=O)c2cccc(OCCOCCOCCOCCOc3ccccc3Cn3c(C)c(C#N)c(-c4ccc(C#N)cc4)c3C)c2)cs1)C1CCCCC1 label=N
